Could you please report measured GI50 for the items listed next?
System: NCI-H460
Experiment: NCI tumour cell line growth inhibition, 48 h
Active and inactive are the calls of the source. No stated cut-off is given here; in the data, active = GI50 up to about 1.1 µM and inactive = higher.

Give the measured GI50 of CN(C)C(=O)OC1=CC2CCC(C1)N2C (stereo not drawn) .
32.4 µM (inactive)

What about `Cc1ccc2nc(-c3ccc(C(C)(C)C)cc3)oc(=O)c2c1` ?
16.2 µM (inactive)

Try this compound next: COCC1N=C(c2ccc(OC)c(OCc3ccccc3)c2OC)O[C@H]1c1ccccc1 (stereo partly drawn)
11.1 µM (inactive)

* * *

System: T47D
Assay: NCI tumour cell line growth inhibition, 48 h
The source made the active and inactive calls. No stated cut-off is given here; in the data, active = GI50 up to about 1.1 µM and inactive = higher.
quantity.name: GI50

Report GI50 for CS(=O)(=O)c1ccc(C(=O)O[C@@H]2C(=O)N3CC[C@H]4OC(O)[C@@H]2[C@H]43)cc1 (stereo partly drawn) please.
> 100 µM (inactive)

What about this compound? CCC(C#N)NCc1cccc(CNC(C#N)CC)c1 (stereo not drawn)
> 100 µM (inactive)

And what about the compound `CCCCCCCCSC1=C(Cl)C(=O)C(OC)=C(OC)C1=O` ?
5.08 µM (inactive)

Same question for `COC(=O)C1=Cc2cc(OC)c(O)cc2[C@@H](c2ccc(O)c(OC)c2)[C@@H]1C(=O)OC` please.
60.5 µM (inactive)

Okay, and `COc1cc(/C=C2\N=C(c3ccccc3)N(c3ccc(S(=O)(=O)Nc4nccs4)cc3)C2=O)ccc1O` ?
85.5 µM (inactive)

Same read-out for `O=c1oc2c/c(=C\c3ccc([N+](=O)[O-])cc3)c(=O)c3cccc1c3-2` ?
> 100 µM (inactive)

Next compound up: CN1N=C(c2ccncc2)OC1c1cccc(F)c1 (stereo not drawn)
> 100 µM (inactive)

Now consider O=C(c1ccco1)C1CC(c2ccc3ccccc3c2O)=NN1 (stereo not drawn) .
92.7 µM (inactive)

* * *

Test system: BT-549
Test: NCI tumour cell line growth inhibition, 48 h
The source made the active and inactive calls. Cut-off read from the data, not from the text of the source: active = GI50 up to about 1.1 µM and inactive = higher.
quantity.name: GI50

For `Cc1ccc(/N=N/c2c(O)ccc3cc(S(=O)(=O)O)ccc23)cc1` , what is its reported GI50?
> 100 µM (inactive)

Check `Cc1sc2nc(-c3cccc([N+](=O)[O-])c3)c(/C=N/N=C(N)N)n2c1C` too.
1.5 µM (inactive)

Would you mind doing `CC1=NN(c2nc(N)nc(CSCc3nc(N)nc(N(C)C)n3)n2)C(C)(C)C1` as well?
> 100 µM (inactive)

Another compound: Cn1c2c(c3ccccc31)CC(=O)N1CCCC(C1)CC21OCCO1 (stereo not drawn)
> 100 µM (inactive)

Another compound to check: COCOc1c(C(O[Si](C)(C)C(C)(C)C)c2cnc(Sc3ccccc3)n2C)ccc(OC)c1OC (stereo not drawn)
1.69 µM (inactive)

Same read-out for CC(C)(C)C1CCC2c3c([nH]c4ccccc34)C3C(=O)N(c4ccc(C#N)cc4)C(=O)C3C2C1 (stereo not drawn) ?
15.7 µM (inactive)

Same question, `CCOC(=O)c1cc(C(=O)c2ccccc2)n2nc(-c3ccc(Cl)cc3)ccc12` this time
18.1 µM (inactive)

Quick one: `CCCCCCCCCCCCCCN`
> 100 µM (inactive)

Same question, CCCCCCCCCCCC(=O)OCC(O)CO (stereo not drawn) [GLYCEROL MONOLAURATE] this time
36.4 µM (inactive)

Follow-up entry: COc1cc2c(c(O)c1OC)-c1c(cc(OC)c(OC)c1OC)CC(C)C(C)C2 (stereo not drawn)
40.8 µM (inactive)

Next up: `Nc1nc(-c2ccccc2)cc(-c2ccc(F)cc2)c1-c1ccc(Cl)cc1`
> 100 µM (inactive)

Lookup `Cc1cc(O)c(C(C)C)cc1C(=S)Nc1ccc(Cl)cc1`
16.5 µM (inactive)

Can you check `CC1(C)[C@@H]2CC[C@]1(C)[C@H](OC(=O)CSC#N)C2` next?
> 100 µM (inactive)

Data provenance: ChEMBL document CHEMBL1201862
